Measured ELISA, listed per entry for reference.
- Assayed target: T1, proprotein convertase subtilisin/kexin type 9 (PCSK9) (human, UniProt Q8NBP7 31-692)
- T1 construct: His-tagged full-length PCSK9 in TR-FRET and SPR, biotinylated in phage ELISA; secreted protein is autoprocessed (prodomain plus catalytic/CRD chain starting at S153); also called rec.PCSK9; His-PCSK9
- T1 sequence (Q8NBP7 other isoform, or with tags, fused parts or gaps limits assumed): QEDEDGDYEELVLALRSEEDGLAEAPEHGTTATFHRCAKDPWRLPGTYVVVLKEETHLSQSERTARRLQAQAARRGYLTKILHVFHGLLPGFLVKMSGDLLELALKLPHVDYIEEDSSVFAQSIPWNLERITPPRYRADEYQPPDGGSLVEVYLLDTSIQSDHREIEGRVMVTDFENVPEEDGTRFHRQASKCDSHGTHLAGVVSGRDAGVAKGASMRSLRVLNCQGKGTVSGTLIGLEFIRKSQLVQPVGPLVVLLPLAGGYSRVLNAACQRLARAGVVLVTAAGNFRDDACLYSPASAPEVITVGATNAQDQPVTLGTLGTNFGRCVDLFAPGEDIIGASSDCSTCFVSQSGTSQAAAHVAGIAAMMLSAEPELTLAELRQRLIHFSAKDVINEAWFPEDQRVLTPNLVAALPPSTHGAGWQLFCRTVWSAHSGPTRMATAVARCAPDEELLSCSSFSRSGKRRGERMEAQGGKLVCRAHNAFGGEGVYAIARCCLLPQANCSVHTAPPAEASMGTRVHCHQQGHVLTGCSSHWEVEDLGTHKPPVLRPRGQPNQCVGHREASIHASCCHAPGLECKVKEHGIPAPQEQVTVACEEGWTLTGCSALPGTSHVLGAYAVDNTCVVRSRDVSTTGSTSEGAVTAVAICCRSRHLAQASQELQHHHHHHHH
- Protocol text: phage spot ELISA
Give a plain numeric answer without units written out.

Known ELISA results, listed for orientation:
TAFTSWEEYLDWVGSGGREMRSVIQM [SEQ ID NO 344] : 2.71
TAFTSWEEYLDWVGSGNMCYLRGKMDCNIV [SEQ ID NO 347] : 2.91

In: Which ELISA value belongs to TAFTSWEEYLDWVGSGQTTYLRVSSS [SEQ ID NO 341] ?
Out: 2.59

In: For TAFTSWEEYLDWVGSGTRYADRGVMVYSLS [SEQ ID NO 321] then?
Out: 3.03

In: For TAFTSWEEYLDWVGSGVCSDHYIGGKEVRC [SEQ ID NO 348] then?
Out: 2.99

In: For TAFTSWEEYLDWVGSGCVKVGLSWIGDCNS [SEQ ID NO 334] then?
Out: 2.66

In: For TAFTSWEEYLDWVGSGDCLRYRVGSSCS [SEQ ID NO 360] then?
Out: 3.04

Taken from patent US20200283478A1.
